Values were extracted from patent US9688764B2.

# Tested on: T1, HEK293/mPRLR (Mus musculus, UniProt Q08501)
# T1 construct: HA; expressed in transfected cells; host or cells: HEK293
# T1 sequence (Q08501 20-608): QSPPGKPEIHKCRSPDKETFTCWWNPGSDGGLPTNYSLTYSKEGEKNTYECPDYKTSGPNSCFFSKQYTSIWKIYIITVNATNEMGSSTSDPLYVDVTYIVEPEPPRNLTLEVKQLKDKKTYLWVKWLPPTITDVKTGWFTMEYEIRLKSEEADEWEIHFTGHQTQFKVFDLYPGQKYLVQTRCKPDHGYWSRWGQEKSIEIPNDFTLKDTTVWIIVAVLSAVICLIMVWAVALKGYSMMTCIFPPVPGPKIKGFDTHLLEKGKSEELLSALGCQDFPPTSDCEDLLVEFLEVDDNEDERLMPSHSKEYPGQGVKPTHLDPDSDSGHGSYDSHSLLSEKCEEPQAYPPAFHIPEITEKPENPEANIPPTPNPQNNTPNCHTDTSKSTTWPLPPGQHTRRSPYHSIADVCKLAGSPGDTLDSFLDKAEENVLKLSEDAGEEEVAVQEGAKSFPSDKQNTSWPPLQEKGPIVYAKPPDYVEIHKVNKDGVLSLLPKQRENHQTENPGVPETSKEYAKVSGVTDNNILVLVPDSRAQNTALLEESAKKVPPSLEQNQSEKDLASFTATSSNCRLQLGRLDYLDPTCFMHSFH
# Test summary: FACS cell surface binding
# Description: The ability of anti-PRLR antibodies to selectively bind PRLR expressing cell lines was next determined. […] Cell surface expression of PRLR on 293/hPRLR cells was assessed via FACS analysis. […] Following two additional washes, samples were run on a Hypercyt® cytometer and analyzed in FORECYT™ (IntelliCyt, Albuquerque, N. Mex.). The mean fluorescence intensities (MFI) were expressed as fold change above isotype control levels (background). […]
Known FACS Cell Binding (Fold Above Background) of a selection of molecules
Numeric answer only, unit Fold Above Background assumed.

| Molecule | Result number |
| --- | --- |
| H1H6797P: anti-PRLR antibody, human IgG1 Fc; HCVR/LCVR SEQ ID NOs 178/186 (antibody, V domains shown, human IgG1 Fc) VH: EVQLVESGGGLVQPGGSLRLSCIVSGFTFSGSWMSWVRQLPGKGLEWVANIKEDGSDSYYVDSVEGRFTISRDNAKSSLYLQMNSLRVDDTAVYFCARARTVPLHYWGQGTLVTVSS VL: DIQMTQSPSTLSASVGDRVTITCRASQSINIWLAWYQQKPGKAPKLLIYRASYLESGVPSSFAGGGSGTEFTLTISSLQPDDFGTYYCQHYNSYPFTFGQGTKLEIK | 2 |

In the following, a different molecule is considered.
Incoming: Could you share which FACS Cell Binding (Fold Above Background) value was measured for H1H6800P: anti-PRLR antibody, human IgG1 Fc; HCVR/LCVR SEQ ID NOs 194/202 (antibody, V domains shown, human IgG1 Fc) VH: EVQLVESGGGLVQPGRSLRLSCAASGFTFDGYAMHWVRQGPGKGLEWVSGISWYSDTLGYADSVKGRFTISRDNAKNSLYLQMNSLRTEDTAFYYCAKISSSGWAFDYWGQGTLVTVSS VL: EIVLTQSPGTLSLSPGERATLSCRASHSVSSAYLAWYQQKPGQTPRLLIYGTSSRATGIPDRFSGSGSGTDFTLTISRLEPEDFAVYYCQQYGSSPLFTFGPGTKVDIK ?
Outgoing: 1
